- Tested On: EGFR (Homo sapiens)
- Sequence (P00533 25-1210): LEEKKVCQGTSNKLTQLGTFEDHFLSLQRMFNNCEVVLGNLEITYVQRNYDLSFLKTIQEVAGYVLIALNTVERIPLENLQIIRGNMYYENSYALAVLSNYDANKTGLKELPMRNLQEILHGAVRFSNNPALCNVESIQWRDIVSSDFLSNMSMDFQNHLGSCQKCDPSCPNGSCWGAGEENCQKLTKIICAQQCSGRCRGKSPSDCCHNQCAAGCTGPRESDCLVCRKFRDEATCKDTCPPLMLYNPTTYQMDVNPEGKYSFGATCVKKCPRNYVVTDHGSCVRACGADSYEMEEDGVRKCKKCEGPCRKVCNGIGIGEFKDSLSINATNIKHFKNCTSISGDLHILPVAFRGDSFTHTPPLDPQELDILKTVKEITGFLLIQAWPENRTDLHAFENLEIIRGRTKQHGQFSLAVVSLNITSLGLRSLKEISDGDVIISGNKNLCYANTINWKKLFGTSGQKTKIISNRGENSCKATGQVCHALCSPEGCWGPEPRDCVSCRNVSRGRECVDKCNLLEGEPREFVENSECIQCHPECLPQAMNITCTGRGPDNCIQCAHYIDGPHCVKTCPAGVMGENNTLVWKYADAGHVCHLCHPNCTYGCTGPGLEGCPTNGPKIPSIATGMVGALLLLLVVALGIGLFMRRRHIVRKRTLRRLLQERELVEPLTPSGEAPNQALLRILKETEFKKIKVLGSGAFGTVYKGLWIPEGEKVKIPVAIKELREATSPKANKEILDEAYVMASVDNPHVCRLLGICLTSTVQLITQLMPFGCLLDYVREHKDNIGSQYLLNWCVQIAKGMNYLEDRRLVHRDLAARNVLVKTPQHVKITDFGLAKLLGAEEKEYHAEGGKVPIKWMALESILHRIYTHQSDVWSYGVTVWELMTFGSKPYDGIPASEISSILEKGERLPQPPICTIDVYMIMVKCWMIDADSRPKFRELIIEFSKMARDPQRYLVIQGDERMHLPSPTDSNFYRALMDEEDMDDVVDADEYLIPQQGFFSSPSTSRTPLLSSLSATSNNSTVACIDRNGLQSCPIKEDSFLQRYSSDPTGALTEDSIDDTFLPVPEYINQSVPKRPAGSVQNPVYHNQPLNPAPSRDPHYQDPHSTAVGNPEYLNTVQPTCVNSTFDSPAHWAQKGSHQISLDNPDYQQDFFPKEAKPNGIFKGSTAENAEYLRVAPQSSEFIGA
- Test: Inhibition of a panel of kinases, in vitro HotSpot kinase assay: EGFR
- Assay type: biochemical
- Conditions Used: Table 13, A compounds; 1 μM ATP
pIC50: −log10 of the molar value.
The following compounds are shown together with reported pIC50 values.

[
  {
    "Compound Structure String": "CN1CCN(c2ccc(Nc3nc(N4CCC[C@@H](n5ccc6cc(C7CC7)cc(F)c6c5=O)C4)cnc3C(N)=O)cc2)CC1",
    "pIC50": "6.00 to 7.00"
  },
  {
    "Compound Structure String": "C[C@@H]1[C@H](n2ccc3cc(C4CC4)ccc3c2=O)CCCN1c1cnc(C(N)=O)c(Nc2ccc(N3CCN(C)CC3)cc2)n1",
    "pIC50": "6.00 to 7.00"
  },
  {
    "Compound Structure String": "C[C@@H]1[C@H](NC(=O)c2ccc(C3CC3)cn2)CCCN1c1cnc(C(N)=O)c(Nc2ccc(N3CCN(C)CC3)cc2)n1",
    "pIC50": "6.00 to 7.00"
  }
]

###

IC50 for assorted compounds
- Tested On: ITK (Homo sapiens)
- Sequence (Q08881 1-620): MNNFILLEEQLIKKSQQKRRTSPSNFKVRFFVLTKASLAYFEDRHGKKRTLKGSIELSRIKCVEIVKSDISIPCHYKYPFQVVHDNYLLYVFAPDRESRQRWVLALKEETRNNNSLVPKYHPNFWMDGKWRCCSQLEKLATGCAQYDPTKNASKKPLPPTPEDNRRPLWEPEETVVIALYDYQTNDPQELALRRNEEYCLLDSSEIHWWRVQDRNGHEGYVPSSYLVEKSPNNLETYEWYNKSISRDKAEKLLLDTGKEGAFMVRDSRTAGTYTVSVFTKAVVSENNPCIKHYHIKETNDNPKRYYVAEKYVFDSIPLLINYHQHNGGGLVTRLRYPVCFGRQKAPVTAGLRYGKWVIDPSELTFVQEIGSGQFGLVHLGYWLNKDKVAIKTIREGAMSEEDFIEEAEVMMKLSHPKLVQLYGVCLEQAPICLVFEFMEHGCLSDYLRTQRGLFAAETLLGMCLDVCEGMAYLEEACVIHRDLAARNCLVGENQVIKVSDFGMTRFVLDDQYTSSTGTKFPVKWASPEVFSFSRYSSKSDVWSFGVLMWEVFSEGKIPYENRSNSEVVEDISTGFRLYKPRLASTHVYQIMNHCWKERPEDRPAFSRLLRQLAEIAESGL
- Test: Inhibition of a panel of kinases, in vitro HotSpot kinase assay: ITK
- Assay type: biochemical
- Conditions Used: D-compounds panel data; 1 μM ATP

[
  {
    "Compound Structure String": "CCOCCOc1ccc(Nc2nc(N3CCC[C@@H](NC(=O)c4ccc(C5CC5)cc4)[C@H]3C)cnc2C(N)=O)cc1",
    "IC50": "> 10000 nM"
  },
  {
    "Compound Structure String": "C[C@@H]1[C@H](NC(=O)c2ccc(C(C)(C)O)cc2F)CCCN1c1nnc(C(N)=O)c(Nc2cnn(C)c2)n1",
    "IC50": "10 to 100 nM"
  },
  {
    "Compound Structure String": "C[C@@H]1[C@H](NC(=O)c2ccc(C3CC3)cc2)CCCN1c1cnc(C(N)=O)c(Nc2ccc(OC3CCN(C)CC3)cc2)n1",
    "IC50": "100 to 1000 nM"
  }
]
